# Tested on: B. megaterium SR7
# ASSAY_NOTES: Biolog GenIII sole carbon source growth
# Type: cell-based, Bacillus megaterium
# TEST_CONTEXT: unamended plate trial I; Table 11
READOUT: Growth in carbon source Biolog plate, I

MOLECULE | Growth in carbon source Biolog plate, I
CO[C@@H]1O[C@H](CO)[C@@H](O)[C@H](O)[C@H]1O [β-Methyl-D-Glucoside] | −
NC(=O)[C@@H](O)[C@@H](O)[C@H](O)[C@@H](O)C=O [Glucuronamide] | −
O=C(O)C[C@@H](O)C(=O)O | −
N[C@H](CO)C(=O)O [D-Serine, reference compound] | −

The molecule listed as OC[C@H]1O[C@H](OCC2O[C@@H](O)[C@H](O)[C@@H](O)[C@@H]2O)[C@H](O)[C@@H](O)[C@H]1O (stereo partly drawn) has a reported Growth in carbon source Biolog plate, I of +

The molecule listed as O=C[C@H](O)[C@@H](O)[C@@H](O)[C@H](O)C(=O)O has a reported Growth in carbon source Biolog plate, I of −

The molecule listed as OC[C@H]1O[C@H](O)[C@H](O)[C@@H](O)[C@@H]1O has a reported Growth in carbon source Biolog plate, I of +

The molecule listed as O=C[C@H](O)[C@@H](O)[C@@H](O)[C@H](O)CO has a reported Growth in carbon source Biolog plate, I of +

The molecule listed as OC[C@@H](O)[C@@H](O)[C@H](O)[C@@H](O)CO has a reported Growth in carbon source Biolog plate, I of +

====

# System: B. megaterium SR7
# ASSAY_NOTES: Biolog GenIII sole carbon source growth
# Format: cell-based, Bacillus megaterium
# TEST_CONTEXT: unamended plate trial I; Table 11
READOUT: Growth in carbon source Biolog plate, I

Reference set, count: 5
COMPOUND | TARGET_ENTITY | Growth in carbon source Biolog plate, I
O=C[C@H](O)[C@@H](O)[C@H](O)[C@H](O)C(=O)O | B. megaterium SR7 | +
O=C(O)[C@@H](O)[C@H](O)[C@H](O)[C@@H](O)C(=O)O | B. megaterium SR7 | −
C[C@H](O)[C@@H](O)[C@@H](O)[C@H](O)C=O | B. megaterium SR7 | −
O=P(O)(O)OC[C@H]1OC(O)[C@H](O)[C@@H](O)[C@@H]1O (stereo partly shown) | B. megaterium SR7 | −
O=C(O)[C@@H](O)[C@@H](O)[C@H](O)[C@@H](O)C(=O)O | B. megaterium SR7 | −

The compound listed as CC(=O)N[C@H]1C(O)O[C@H](CO)[C@@H](O)[C@@H]1O (stereo partly shown) has a reported Growth in carbon source Biolog plate, I of +

The compound listed as N[C@@H](CO)C(=O)O has a reported Growth in carbon source Biolog plate, I of +

The compound listed as CC(=O)N[C@H]1[C@@H](O)[C@H](O)[C@@H](CO)O[C@H]1O has a reported Growth in carbon source Biolog plate, I of −

The compound listed as O=P(O)(O)OC[C@H]1OC(O)(CO)[C@@H](O)[C@@H]1O (stereo partly shown) has a reported Growth in carbon source Biolog plate, I of +

The compound listed as O[C@H]1[C@H](O)[C@@H](O)[C@H](O)[C@@H](O)[C@H]1O has a reported Growth in carbon source Biolog plate, I of −

The compound listed as OC[C@H]1O[C@H](O[C@H]2[C@H](O)[C@@H](O)[C@H](O)O[C@@H]2CO)[C@H](O)[C@@H](O)[C@@H]1O has a reported Growth in carbon source Biolog plate, I of −

The compound listed as OC[C@H]1O[C@H](O[C@H]2O[C@H](CO)[C@@H](O)[C@H](O)[C@H]2O)[C@H](O)[C@@H](O)[C@@H]1O has a reported Growth in carbon source Biolog plate, I of −

The compound listed as O=C(O)[C@]1(O)C[C@@H](O)[C@@H](O)[C@H](O)C1 has a reported Growth in carbon source Biolog plate, I of −

The compound listed as C[C@H](O)[C@H](O)[C@@H](O)[C@@H](O)C=O has a reported Growth in carbon source Biolog plate, I of −

====

# Test system: B. megaterium SR7
# ASSAY_NOTES: Biolog GenIII sole carbon source growth
# Format: cell-based, Bacillus megaterium
# TEST_CONTEXT: unamended plate trial I; Table 11
Peptide text beside a SMILES is read from it.
READOUT: Growth in carbon source Biolog plate, I

Reference set, count: 6
MOLECULE | RESULT_VALUE
CC(=O)N[C@H]1[C@H]([C@H](O)[C@H](O)CO)OC(O)(C(=O)O)C[C@@H]1O (stereo partly shown) | −
N=C(N)NCCC[C@H](N)C(=O)O | +
OC[C@H]1O[C@@H](n2cnc3c(O)ncnc32)[C@H](O)[C@@H]1O | −
C[C@H](N)C(=O)O | +
NCC(=O)N1CCC[C@H]1C(=O)O [Glycyl-L-Proline] (H-Gly-Pro-OH) | −
OC[C@@H](O)[C@@H](O)[C@H](O)[C@H](O)CO | +

Moving on to the next molecule.
The molecule listed as O=C1O[C@H]([C@@H](O)CO)[C@@H](O)[C@@H]1O has a reported Growth in carbon source Biolog plate, I of −

====

# Test system: B. megaterium SR7
# ASSAY_NOTES: Biolog GenIII sole carbon source growth
# Type: cell-based, Bacillus megaterium
# TEST_CONTEXT: unamended plate trial I; Table 11
# Experimental: Plates were incubated at 37° C. on a plate shaker at 200 rpm and assayed for growth using NADH-dependent colorimetric changes measured by OD490 on a microplate reader (BioTek Synergy 2; BioTek; Winooski, Vt.).
READOUT: Growth in carbon source Biolog plate, I

COMPOUND | READOUT | RESULT_VALUE
OC[C@H]1O[C@H](OC[C@H]2O[C@H](O[C@]3(CO)O[C@H](CO)[C@@H](O)[C@@H]3O)[C@H](O)[C@@H](O)[C@@H]2O)[C@H](O)[C@@H](O)[C@H]1O | Growth in carbon source Biolog plate, I | −
OC[C@H]1O[C@@H](O[C@H]2[C@H](O)[C@@H](O)[C@@H](O)O[C@@H]2CO)[C@H](O)[C@@H](O)[C@H]1O | Growth in carbon source Biolog plate, I | +
C[C@@H](O)[C@H](O)[C@H](O)[C@@H](O)C=O | Growth in carbon source Biolog plate, I | −
O=C(O)CC(Br)C(=O)O (stereo not shown) | Growth in carbon source Biolog plate, I | +

====

# System: B. megaterium SR7
# ASSAY_NOTES: Biolog GenIII sole carbon source growth
# Assay type: cell-based, Bacillus megaterium
# TEST_CONTEXT: unamended plate trial I; Table 11
READOUT: Growth in carbon source Biolog plate, I

Reference set, count: 6
COMPOUND | RESULT_VALUE
O=C(CO)[C@@H](O)[C@H](O)[C@H](O)CO | +
OC[C@H]1O[C@@](CO)(O[C@H]2O[C@H](CO)[C@@H](O)[C@H](O)[C@H]2O)[C@@H](O)[C@@H]1O | −
N[C@@H](Cc1c[nH]cn1)C(=O)O | +
OC[C@H]1O[C@@H](O[C@H]2[C@H](O)[C@@H](O)[C@H](O)O[C@@H]2CO)[C@H](O)[C@@H](O)[C@@H]1O | +
N[C@H](CC(=O)O)C(=O)O | −
CCC(=O)O | −

The compound listed as CC(=O)CC(=O)O has a reported Growth in carbon source Biolog plate, I of −

The compound listed as CC(O)CC(=O)O (racemic) [β-Hydroxy-D,L-Butyric Acid] has a reported Growth in carbon source Biolog plate, I of +

The compound listed as O=C[C@@H](O)[C@@H](O)[C@H](O)[C@H](O)CO has a reported Growth in carbon source Biolog plate, I of −

The compound listed as CC(=O)N[C@H]1C(O)O[C@H](CO)[C@H](O)[C@@H]1O (some centres unmarked) has a reported Growth in carbon source Biolog plate, I of +

The compound listed as O=C(O)Cc1ccc(O)cc1 [p-Hydroxy-Phenylacetic Acid] has a reported Growth in carbon source Biolog plate, I of −

The compound listed as OC[C@@H](O)C(O)[C@H](O)CO has a reported Growth in carbon source Biolog plate, I of +

The compound listed as COC(=O)C(C)=O [Methyl Pyruvate] has a reported Growth in carbon source Biolog plate, I of +

The compound listed as N[C@@H](CC(=O)O)C(=O)O has a reported Growth in carbon source Biolog plate, I of +

The compound listed as NCCCC(=O)O has a reported Growth in carbon source Biolog plate, I of −

The compound listed as OCC(O)CO has a reported Growth in carbon source Biolog plate, I of +

The compound listed as CCC(O)C(=O)O (stereo not drawn) [α-Hydroxy-Butyric Acid] has a reported Growth in carbon source Biolog plate, I of −

The compound listed as CCC(=O)C(=O)O has a reported Growth in carbon source Biolog plate, I of −

The compound listed as O=C(O)[C@H](O)[C@@H](O)[C@H](O)[C@H](O)CO has a reported Growth in carbon source Biolog plate, I of +

The compound listed as C[C@H](O)C(=O)O has a reported Growth in carbon source Biolog plate, I of +

The compound listed as O=C1CC[C@@H](C(=O)O)N1 has a reported Growth in carbon source Biolog plate, I of +

The compound listed as COC(=O)[C@@H](C)O has a reported Growth in carbon source Biolog plate, I of +

The compound listed as O=CO has a reported Growth in carbon source Biolog plate, I of +

The compound listed as OC[C@H]1O[C@H](OC[C@H]2O[C@H](OC[C@H]3O[C@H](O[C@]4(CO)O[C@H](CO)[C@@H](O)[C@@H]4O)[C@H](O)[C@@H](O)[C@@H]3O)[C@H](O)[C@@H](O)[C@H]2O)[C@H](O)[C@@H](O)[C@H]1O has a reported Growth in carbon source Biolog plate, I of +

The compound listed as N[C@@H](CCC(=O)O)C(=O)O has a reported Growth in carbon source Biolog plate, I of +

The compound listed as O=C(O)CC(O)(CC(=O)O)C(=O)O has a reported Growth in carbon source Biolog plate, I of +++
